Assay: Displacement of [3H]DALKD from bradykinin receptor in rat brain membrane at pH 6.8 by competition assay
Type: cell membranes
Non-standard residues stand in square brackets, D forms with d. Residues, ends and D or L forms follow the SMILES beside them. ξ: configuration not given here. ξNle = CCCCC(N)C(=O)O
measured.endpoint: pIC50
Numbers only.

// below: answered compounds
Please report the recorded pIC50 for CC[C@H](C)[C@H](NC(=O)[C@H](CCCNC(=N)N)NC(=O)[C@@H](N)Cc1ccccc1)C(=O)N[C@@H](CCCNC(=N)N)C(=O)N1CCC[C@H]1C(=O)N[C@@H](CCCCN)C(=O)N[C@@H](CC(C)C)C(=O)N[C@@H](CCCCN)C(=O)O (H-FRIRPKLK-OH) .
7.08

Please report the recorded pIC50 for CCCCC(N)C(=O)N[C@@H](CCCCN)C(=O)N[C@H](C(=O)N[C@@H](CCCCN)C(=O)N1CCC[C@H]1C(=O)N[C@@H](CCCCN)C(=O)O)[C@@H](C)CC (stereo partly drawn) (H-[ξNle]KIKPK-OH) .
6.34

Please report the recorded pIC50 for CC[C@H](C)[C@H](NC(=O)[C@H](CCCNC(=N)N)NC(=O)[C@@H]1CCCN1C(=O)[C@H](CCCCN)NC(=O)[C@H](CC(C)C)NC(=O)[C@@H](N)CCCCN)C(=O)O (H-KLKPRI-OH) .
5.2

Please report the recorded pIC50 for CC[C@H](C)[C@H](N)C(=O)N[C@@H](CCCNC(=N)N)C(=O)N1CCC[C@H]1C(=O)N[C@@H](CCCCN)C(=O)N[C@@H](CC(C)C)C(=O)N[C@@H](CCCCN)C(=O)O (H-IRPKLK-OH) .
7.31

Please report the recorded pIC50 for CC[C@H](C)[C@H](NC(=O)[C@H](CCCNC(=N)N)NC(=O)[C@@H]1CCCN1C(=O)[C@@H](N)CCCCN)C(=O)N[C@@H](CCCNC(=N)N)C(=O)N[C@@H](CC(C)C)C(=O)O (H-KPRIRL-OH) .
6.03

Please report the recorded pIC50 for CC[C@H](C)[C@H](NC(=O)[C@H](CCCNC(=N)N)NC(=O)[C@@H]1CCCN1C(=O)[C@H](CCCCN)NC(=O)[C@H](CC(C)C)NC(=O)[C@@H](N)CCCCN)C(=O)N[C@@H](CCCNC(=N)N)C(=O)N[C@@H](CC(C)C)C(=O)N[C@@H](Cc1ccccc1)C(=O)NCC(=O)NCC(=O)O (H-KLKPRIRLFGG-OH) .
6.82

Please report the recorded pIC50 for CC[C@H](C)[C@H](NC(=O)[C@H](CCCNC(=N)N)NC(=O)[C@H](CC(C)C)NC(=O)[C@H](Cc1ccccc1)NC(=O)CNC(=O)CN)C(=O)N[C@@H](CCCNC(=N)N)C(=O)N1CCC[C@H]1C(=O)N[C@@H](CCCCN)C(=O)N[C@@H](CC(C)C)C(=O)N[C@@H](CCCCN)C(=O)O (H-GGFLRIRPKLK-OH) .
7.39

More entries:
Please report the recorded pIC50 for CC[C@H](C)[C@H](NC(=O)[C@H](CCCNC(=N)N)NC(=O)[C@@H]1CCCN1C(=O)[C@H](CCCCN)NC(=O)[C@H](CC(C)C)NC(=O)[C@@H](N)CC(C)C)C(=O)N[C@@H](CCCNC(=N)N)C(=O)N[C@@H](CCCNC(=N)N)C(=O)N[C@@H](CC(C)C)C(=O)N[C@@H](Cc1ccccc1)C(=O)NCC(=O)NCC(=O)O (H-LLKPRIRRLFGG-OH) .
7.03

---

Experiment: Displacement of [3H]DALKD from bradykinin receptor in rat brain membrane at pH 7.4 by competition assay
Format: cell membranes
Non-standard residues stand in square brackets, D forms with d. Residues, ends and D or L forms follow the SMILES beside them. Phe(4-NH2) = Nc1ccc(C[C@H](N)C(=O)O)cc1
measured.endpoint: pIC50
Answers are plain numbers.

Please report the recorded pIC50 for CC(C)C[C@H](NC(=O)[C@H](Cc1ccccc1)NC(=O)CN)C(=O)N[C@@H](CCCNC(=N)N)C(=O)O (H-GFLR-OH) .
6.02

Please report the recorded pIC50 for CC(C)C[C@H](NC(=O)[C@H](CCCCN)NC(=O)[C@@H](N)Cc1ccc(N)cc1)C(=O)N[C@@H](CCCCN)C(=O)O (H-[Phe(4-NH2)]KLK-OH) .
6.35

Okay, next one:
Please report the recorded pIC50 for CC[C@H](C)[C@H](NC(=O)[C@H](CCCNC(=N)N)NC(=O)[C@H](CCCNC(=N)N)NC(=O)[C@H](CC(C)C)NC(=O)[C@@H](N)Cc1ccccc1)C(=O)O (H-FLRRI-OH) .
5.32

---

Exercise: state measured Retention_time for each of the molecules provided.
Experiment: Retention time of the compound by HPLC analysis
Format: physicochemical
Non-standard residues stand in square brackets, D forms with d. Residues, ends and D or L forms follow the SMILES beside them. ξ: configuration not given here. ξNle = CCCCC(N)C(=O)O
Numbers only, in min.

Please report the recorded Retention_time for CC[C@H](C)[C@H](NC(=O)[C@H](CCCNC(=N)N)NC(=O)[C@H](CCCNC(=N)N)NC(=O)[C@H](CC(C)C)NC(=O)[C@H](Cc1ccccc1)NC(=O)CN)C(=O)O (H-GFLRRI-OH) .
10.1

Please report the recorded Retention_time for CC[C@H](C)[C@H](NC(=O)[C@@H](N)CCCNC(=N)N)C(=O)N[C@@H](CCCNC(=N)N)C(=O)N1CCC[C@H]1C(=O)N[C@@H](CCCCN)C(=O)N[C@@H](CC(C)C)C(=O)N[C@@H](CCCCN)C(=O)O (H-RIRPKLK-OH) .
8.3

Please report the recorded Retention_time for CCCCC(N)C(=O)N[C@@H](CCCCN)C(=O)N[C@H](C(=O)N[C@@H](CCCCN)C(=O)N1CCC[C@H]1C(=O)N[C@@H](CCCCN)C(=O)O)[C@@H](C)CC (some centres undefined) (H-[ξNle]KIKPK-OH) .
7.9

Okay, next one:
Please report the recorded Retention_time for CC[C@H](C)[C@H](NC(=O)[C@H](CCCNC(=N)N)NC(=O)[C@@H]1CCCN1C(=O)[C@H](CCCCN)NC(=O)[C@H](CC(C)C)NC(=O)[C@@H](N)CCCCN)C(=O)N[C@@H](CCCNC(=N)N)C(=O)N[C@@H](CC(C)C)C(=O)N[C@@H](Cc1ccccc1)C(=O)NCC(=O)NCC(=O)O (H-KLKPRIRLFGG-OH) .
12.1

---

Experiment: Displacement of [3H]DALKD from bradykinin receptor in rat brain membrane at pH 6.8 by competition assay
Format: cell membranes
Non-standard residues stand in square brackets, D forms with d. Residues, ends and D or L forms follow the SMILES beside them. ξ: configuration not given here. ξNle = CCCCC(N)C(=O)O
measured.endpoint: pIC50
One number for each entry.

Please report the recorded pIC50 for CC[C@H](C)[C@H](NC(=O)[C@H](CCCNC(=N)N)NC(=O)[C@@H]1CCCN1C(=O)[C@H](CCCCN)NC(=O)[C@H](CC(C)C)NC(=O)[C@@H](N)CCCCN)C(=O)N[C@@H](CCCNC(=N)N)C(=O)N[C@@H](CCCNC(=N)N)C(=O)N[C@@H](CC(C)C)C(=O)N[C@@H](Cc1ccccc1)C(=O)NCC(=O)NCC(=O)O (H-KLKPRIRRLFGG-OH) .
7.11

More entries:
Please report the recorded pIC50 for CCCCC(N)C(=O)N[C@@H](CCCCN)C(=O)N1CCC[C@H]1C(=O)N[C@@H](CCCCN)C(=O)NC(CCCC)C(=O)N[C@@H](CCCCN)C(=O)O (some centres not stated) (H-[ξNle]KPK[ξNle]K-OH) .
7.11

---

Assay: Displacement of [3H]DALKD from bradykinin receptor in rat brain membrane at pH 6.8 by competition assay
Type: cell membranes
Settings: read-out: IC50
Non-standard residues stand in square brackets, D forms with d. Residues, ends and D or L forms follow the SMILES beside them. ξ: configuration not given here. ξNle = CCCCC(N)C(=O)O
measured.endpoint: IC50 (nM)
Answers are plain numbers, in nM.

// below: answered compounds
Please report the recorded IC50 for CCCCC(NC(=O)[C@H](CCCNC(=N)N)NC(=O)C(CCCC)NC(=O)[C@@H](N)Cc1ccccc1)C(=O)N[C@@H](CCCNC(=N)N)C(=O)N1CCC[C@H]1C(=O)N[C@@H](CCCNC(=N)N)C(=O)O (stereo partly specified) (H-F[ξNle]R[ξNle]RPR-OH) .
87

Please report the recorded IC50 for CC[C@H](C)[C@H](NC(=O)[C@H](CCCNC(=N)N)NC(=O)[C@@H]1CCCN1C(=O)[C@H](CCCCN)NC(=O)[C@H](CC(C)C)NC(=O)[C@@H](N)CCCCN)C(=O)N[C@@H](CCCNC(=N)N)C(=O)N[C@@H](CCCNC(=N)N)C(=O)N[C@@H](CC(C)C)C(=O)N[C@@H](Cc1ccccc1)C(=O)NCC(=O)NCC(=O)O (H-KLKPRIRRLFGG-OH) .
78

Please report the recorded IC50 for CC[C@H](C)[C@H](NC(=O)[C@H](CCCNC(=N)N)NC(=O)[C@H](CC(C)C)NC(=O)[C@H](Cc1ccccc1)NC(=O)CNC(=O)CN)C(=O)N[C@@H](CCCNC(=N)N)C(=O)N1CCC[C@H]1C(=O)N[C@@H](CCCCN)C(=O)N[C@@H](CC(C)C)C(=O)N[C@@H](CCCCN)C(=O)O (H-GGFLRIRPKLK-OH) .
41

Please report the recorded IC50 for CCCCC(N)C(=O)N[C@@H](CCCCN)C(=O)N[C@H](C(=O)N[C@@H](CCCCN)C(=O)N1CCC[C@H]1C(=O)N[C@@H](CCCCN)C(=O)O)[C@@H](C)CC (stereo partly specified) (H-[ξNle]KIKPK-OH) .
460

Please report the recorded IC50 for CC[C@H](C)[C@H](NC(=O)[C@@H](N)CCCNC(=N)N)C(=O)N[C@@H](CCCNC(=N)N)C(=O)N1CCC[C@H]1C(=O)N[C@@H](CCCCN)C(=O)N[C@@H](CC(C)C)C(=O)N[C@@H](CCCCN)C(=O)O (H-RIRPKLK-OH) .
65

Each of the following entries comes with a recorded value; kindly state IC50 for each.
1. CC[C@H](C)[C@H](NC(=O)[C@H](CCCNC(=N)N)NC(=O)[C@@H]1CCCN1C(=O)[C@H](CCCCN)NC(=O)[C@H](CC(C)C)NC(=O)[C@@H](N)CCCCN)C(=O)N[C@@H](CCCNC(=N)N)C(=O)N[C@@H](CC(C)C)C(=O)N[C@@H](Cc1ccccc1)C(=O)NCC(=O)NCC(=O)O (H-KLKPRIRLFGG-OH)
2. CC(C)C[C@H](NC(=O)[C@H](CCCCN)NC(=O)[C@@H]1CCCN1)C(=O)N[C@@H](CCCCN)C(=O)O (H-PKLK-OH)
3. CCCCC(N)C(=O)N[C@@H](CCCCN)C(=O)N1CCC[C@H]1C(=O)N[C@@H](CCCCN)C(=O)NC(CCCC)C(=O)N[C@@H](CCCCN)C(=O)O (stereo partly specified) (H-[ξNle]KPK[ξNle]K-OH)
4. CCCCC(N)C(=O)N[C@@H](CCCNC(=N)N)C(=O)N1CCC[C@H]1C(=O)N[C@@H](CCCNC(=N)N)C(=O)NC(CCCC)C(=O)N[C@@H](CCCCN)C(=O)O (stereo partly specified) (H-[ξNle]RPR[ξNle]K-OH)
5. CC[C@H](C)[C@H](NC(=O)[C@H](CCCNC(=N)N)NC(=O)[C@H](CCCNC(=N)N)NC(=O)[C@H](CC(C)C)NC(=O)[C@@H](N)Cc1ccccc1)C(=O)N[C@@H](CCCNC(=N)N)C(=O)N1CCC[C@H]1C(=O)N[C@@H](CCCCN)C(=O)N[C@@H](CC(C)C)C(=O)O (H-FLRRIRPKL-OH)
6. CC[C@H](C)[C@H](NC(=O)[C@H](CCCNC(=N)N)NC(=O)[C@@H](NC(=O)[C@@H](N)Cc1ccccc1)[C@@H](C)CC)C(=O)N[C@@H](CCCNC(=N)N)C(=O)N1CCC[C@H]1C(=O)N[C@@H](CCCNC(=N)N)C(=O)O (H-FIRIRPR-OH)

[150, 210, 78, 83, 5200, 110]

Each of the following entries comes with a recorded value; kindly state IC50 for each.
1. CC[C@H](C)[C@H](N)C(=O)N[C@@H](CCCNC(=N)N)C(=O)N1CCC[C@H]1C(=O)N[C@@H](CCCCN)C(=O)N[C@@H](CC(C)C)C(=O)N[C@@H](CCCCN)C(=O)O (H-IRPKLK-OH)
2. CC[C@H](C)[C@H](NC(=O)[C@H](CCCNC(=N)N)NC(=O)[C@@H](N)Cc1ccccc1)C(=O)N[C@@H](CCCNC(=N)N)C(=O)N1CCC[C@H]1C(=O)N[C@@H](CCCCN)C(=O)N[C@@H](CC(C)C)C(=O)N[C@@H](CCCCN)C(=O)O (H-FRIRPKLK-OH)
3. CC[C@H](C)[C@H](NC(=O)[C@H](CCCNC(=N)N)NC(=O)[C@@H]1CCCN1C(=O)[C@H](CCCCN)NC(=O)[C@H](CC(C)C)NC(=O)[C@@H](N)CCCCN)C(=O)O (H-KLKPRI-OH)
4. CC[C@H](C)[C@H](NC(=O)[C@H](CCCNC(=N)N)NC(=O)[C@@H]1CCCN1C(=O)[C@@H](N)CCCCN)C(=O)N[C@@H](CCCNC(=N)N)C(=O)N[C@@H](CC(C)C)C(=O)O (H-KPRIRL-OH)
5. CC[C@H](C)[C@H](NC(=O)[C@H](CCCNC(=N)N)NC(=O)[C@@H]1CCCN1C(=O)[C@H](CCCCN)NC(=O)[C@H](CC(C)C)NC(=O)[C@@H](N)CC(C)C)C(=O)N[C@@H](CCCNC(=N)N)C(=O)N[C@@H](CCCNC(=N)N)C(=O)N[C@@H](CC(C)C)C(=O)N[C@@H](Cc1ccccc1)C(=O)NCC(=O)NCC(=O)O (H-LLKPRIRRLFGG-OH)

1: 49; 2: 83; 3: 6300; 4: 930; 5: 93
